Test system: Rattus norvegicus
method-summary: Effective dose causing reduction of serotonin effect at 5 min administered iv in Bezold-Jarisch reflex test
Format: functional
ED50 values, listed per item
observation-type: ED50 (mg/kg)

molecule="COc1cc(C(=O)OC2CC3CCC(C2)N3C)c2ccccc2n1 (stereo not given)" assayed_target="Rattus norvegicus" observation_type=ED50 value_unit=mg/kg val=0.42
molecule="CC(C)Oc1cc(C(=O)NC2CC3CCC(C2)N3C)c2ccccc2n1 (stereo not given)" assayed_target="Rattus norvegicus" observation_type=ED50 value_unit=mg/kg val=1.86
molecule="CCCOc1cc(C(=O)NC2CC3CCC(C2)N3C)c2ccccc2n1 (stereo not given)" assayed_target="Rattus norvegicus" observation_type=ED50 value_unit=mg/kg val=1.54
molecule="CCCCOc1cc(C(=O)OC2CC3CCC(C2)N3C)c2ccccc2n1 (stereo not given)" assayed_target="Rattus norvegicus" observation_type=ED50 value_unit=mg/kg val=0.2
molecule="CCCCn1c(=O)cc(C(=O)OC2CC3CCC(C2)N3C)c2ccccc21 (stereo not given)" assayed_target="Rattus norvegicus" observation_type=ED50 value_unit=mg/kg val=0.041
molecule="CC(C)n1c(=O)cc(C(=O)OC2CC3CCC(C2)N3C)c2ccccc21 (stereo not given)" assayed_target="Rattus norvegicus" observation_type=ED50 value_unit=mg/kg val=0.081
molecule="CN1C2CCC1CC(OC(=O)c1cc(=O)n(C)c3ccccc13)C2 (stereo not given)" assayed_target="Rattus norvegicus" observation_type=ED50 value_unit=mg/kg val=0.18
molecule="CCCCn1c(=O)cc(C(=O)NC2CC3CCC(C2)N3C)c2ccccc21 (stereo not given)" assayed_target="Rattus norvegicus" observation_type=ED50 value_unit=mg/kg val=0.37
molecule="CC(C)COc1cc(C(=O)OC2CC3CCC(C2)N3C)c2ccccc2n1 (stereo not given)" assayed_target="Rattus norvegicus" observation_type=ED50 value_unit=mg/kg val=0.24
molecule="CCCn1c(=O)cc(C(=O)NC2CC3CCC(C2)N3C)c2ccccc21 (stereo not given)" assayed_target="Rattus norvegicus" observation_type=ED50 value_unit=mg/kg val=0.35

Ref: ChEMBL document CHEMBL1126872
